protocol details: yeast display, Sf9 membrane polyspecificity reagent, FACS + sequencing; frameworks hold sequencing errors

ordered residues: QFQLVESGGRLVQAGGSLRLSCAASGFIFWYNAMGWYRQAPGKEREFVAAISSGGSTTYADSVKGRFTISRDNAKNTVYLQMNSLKPEDTAVSYCAAGSYDYDYWGQGTQVTVSS
polyreactivity (PSR sort gate): low polyreactivity

ordered residues: QVQLVESGGGLVQAGGSLRLSCAASGRIFVQYAMGWNRQAPGKERELVAAISGSGGRTYYADSVKWRFTISRDNAKNTVYLQMNSLKTEDTAVFYCAARSSTGVSFWKPYYYWGQGTQVTLSS
polyreactivity (PSR sort gate): high polyreactivity

ordered residues: QVQLVESGGGLVQAGGSLRLSCAASGSTFKGYSMGWYRQAPGKERALVAAISRSGTRTYYADSVKGRFTISRDNAKNTVYLHMTILKPEVTAVYYCNKVTGFIAHDNEKGRDYWGQGTQVTVSS
polyreactivity (PSR sort gate): low polyreactivity

ordered residues: QVQLVESGGGLVQAGGSLRLSCAASGRTFGFNVMGRYRQAPGKERELVAAISWSGGSTYYADSVKGRFTISRDNAKNTVYLQMTSLKPEDTAVYYCNKRYVHRYGYWGQGTQVTVSS
polyreactivity (PSR sort gate): low polyreactivity

ordered residues: QVQLLESGGGLVQAGGSLRLSCAASGFTFRVNAMGWYIQAPGKERELVAAISSGGSTNYADSVKGRFTISRDNAKNTVYLQMNSLKPEDTAVYYCAKRFKYIYFWGQGTQVTVSS
polyreactivity (PSR sort gate): high polyreactivity
